# tested-on: human PTPN2 (1-387) (Homo sapiens (Human))
# Sequence (P17706 other isoform, or with tags, fused parts or gaps): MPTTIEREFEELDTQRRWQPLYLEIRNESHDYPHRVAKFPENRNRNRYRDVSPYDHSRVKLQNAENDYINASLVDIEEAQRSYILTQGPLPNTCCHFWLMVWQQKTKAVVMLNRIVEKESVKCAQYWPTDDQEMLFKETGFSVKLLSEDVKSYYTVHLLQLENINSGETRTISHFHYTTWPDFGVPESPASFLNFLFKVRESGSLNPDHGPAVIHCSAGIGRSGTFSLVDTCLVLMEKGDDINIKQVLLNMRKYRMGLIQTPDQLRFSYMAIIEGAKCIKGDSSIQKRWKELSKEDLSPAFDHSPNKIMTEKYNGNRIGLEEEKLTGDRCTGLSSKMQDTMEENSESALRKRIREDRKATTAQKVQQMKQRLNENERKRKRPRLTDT
Response field label: string, one of yes (1) (IC50 strictly below 300 nM) or no (0).

Ask | Decide: IC50 of O=C(NCCn1ccc2ccccc21)c1ccc2sc(C(F)(F)P(=O)(O)O)c(Br)c2c1 strictly below 300 nM?
Reply | no (0)

Ask | // query: CC12CC(COc3cc(C(N)=O)cc4c(Br)c(C(F)(F)P(=O)(O)O)sc34)(C1)C2
Reply | yes (1)

Ask | // query: NC(=O)c1cc(OCC[C@@H]2C[C@H]2C(F)(F)F)c2sc(C(F)(F)P(=O)(O)O)c(Br)c2c1
Reply | yes (1)

Ask | // query: COc1cccc(NC(=O)c2ccc3sc(C(F)(F)P(=O)(O)O)c(C#N)c3c2)c1
Reply | no (0)

Ask | // query: CC1CCCC(NC(=O)c2ccc3sc(C(F)(F)P(=O)(O)O)c(Br)c3c2)C1 (stereo not drawn)
Reply | no (0)

Ask | // query: N#Cc1cc(C(=O)NCc2cccnn2)cc2c(Br)c(C(F)(F)P(=O)(O)O)sc12
Reply | no (0)

FYI, the data here is from patent US20250059220A1.
